Recorded values, source the Human Domainome abundance scans (Beltran et al. 2025).

B1: Chromodomain-helicase-DNA-binding protein 7, residues 2564 to 2605; numbered along this chain, Q9P2D1 (parent)
chain: DPDTRIPVINLEDGTRLVGEDAPKNKDLVEWLKLHPTYTVDM

Variants of: B1
Assay: abundance fitness (aPCA) (normalised: wild type 0, dead -1); higher = more abundant; growth selection in yeast, the domain comes from the species named
Details: Homo sapiens
We use -0.1 as the dividing line for abundance fitness: on or above the line is class 1, below is class 0.

DPDTRIPVINLEDGTRQVGEDAPKNKDLVEWLKLHPTYTVDM [L17Q] :: class 0
DPDTRIPVINLEDGTRLVGEDAPKNKDLVESLKLHPTYTVDM [W31S] :: class 0
DPDTRIPVINLEDGTRLVGEDAPKNKDLVEALKLHPTYTVDM [W31A] :: class 0
DPDTRIPNINLEDGTRLVGEDAPKNKDLVEWLKLHPTYTVDM [V8N] :: class 0
DPDTRIPVINLEDGTRLYGEDAPKNKDLVEWLKLHPTYTVDM [V18Y] :: class 1

Ask: For this variant, is measured abundance fitness -0.1 or higher? DPDTRIPVINLEDGTRLVGEDAPKNKDLVEWLCLHPTYTVDM [K33C]
Result: class 0

Ask: For this variant, is measured abundance fitness -0.1 or higher? DPDTRIPVINLEDGTRLVGEDAPKNKDLVECLKLHPTYTVDM [W31C]
Result: class 0

Ask: For this variant, is measured abundance fitness -0.1 or higher? DPDTRIPVINLEDNTRLVGEDAPKNKDLVEWLKLHPTYTVDM [G14N]
Result: class 1

Ask: For this variant, is measured abundance fitness -0.1 or higher? DPDTRIPVINLEDGTRLVGEDAPKNKDLVEWLKVHPTYTVDM [L34V]
Result: class 1

Ask: For this variant, is measured abundance fitness -0.1 or higher? DPDTRINVINLEDGTRLVGEDAPKNKDLVEWLKLHPTYTVDM [P7N]
Result: class 0

Ask: For this variant, is measured abundance fitness -0.1 or higher? DPDTRIPVIALEDGTRLVGEDAPKNKDLVEWLKLHPTYTVDM [N10A]
Result: class 0

Ask: For this variant, is measured abundance fitness -0.1 or higher? DPDTRIPVINLEDGTRLNGEDAPKNKDLVEWLKLHPTYTVDM [V18N]
Result: class 1

Ask: For this variant, is measured abundance fitness -0.1 or higher? DPDTRIPVINLEHGTRLVGEDAPKNKDLVEWLKLHPTYTVDM [D13H]
Result: class 0
